# Assay context: in n-propanol, 283.15 K
Measured quantity: solubility (mole fraction)

GET /values?readout=solubility (mole fraction)&item= `O=C(O)c1ccc(Cl)cc1Cl`
0.0422

---

# Assay context: in acetone, 293.15 K
Measured quantity: solubility (mole fraction)

GET /values?readout=solubility (mole fraction)&item= `O=C(O)c1ccc(Cl)cc1Cl`
0.0482

---

# Assay context: in acetone, 308.15 K
Measured quantity: solubility (mole fraction)
Give the figure by itself; no unit, no explanation.

GET /values?readout=solubility (mole fraction)&item= `O=C(O)c1ccc(Cl)cc1Cl`
0.0648

---

# Assay context: in toluene, 303.15 K
Measured quantity: solubility (mole fraction)
Give the figure by itself; no unit, no explanation.

GET /values?readout=solubility (mole fraction)&item= `O=C(O)c1ccc(Cl)cc1Cl`
0.00552

---

# Assay context: in isopropanol, 313.15 K
Measured quantity: solubility (mole fraction)

GET /values?readout=solubility (mole fraction)&item= `O=C(O)c1ccc(Cl)cc1Cl`
0.0849

---

# Assay context: in isopropanol, 308.15 K
Measured quantity: solubility (mole fraction)
Give the figure by itself; no unit, no explanation.

GET /values?readout=solubility (mole fraction)&item= `O=C(O)c1ccc(Cl)cc1Cl`
0.0769

---

# Assay context: in n-propanol, 303.15 K
Measured quantity: solubility (mole fraction)
Give the figure by itself; no unit, no explanation.

GET /values?readout=solubility (mole fraction)&item= `O=C(O)c1ccc(Cl)cc1Cl`
0.0631

---

# Assay context: in methanol, 308.15 K
Measured quantity: solubility (mole fraction)
Give the figure by itself; no unit, no explanation.

GET /values?readout=solubility (mole fraction)&item= `O=C(O)c1ccc(Cl)cc1Cl`
0.0556

---

# Assay context: in ethanol, 293.15 K
Measured quantity: solubility (mole fraction)
Give the figure by itself; no unit, no explanation.

GET /values?readout=solubility (mole fraction)&item= `O=C(O)c1ccc(Cl)cc1Cl`
0.0537

---

# Assay context: in toluene, 298.15 K
Measured quantity: solubility (mole fraction)
Give the figure by itself; no unit, no explanation.

GET /values?readout=solubility (mole fraction)&item= `O=C(O)c1ccc(Cl)cc1Cl`
0.00433
